# experimentalTarget: DNA topoisomerase II (Homo sapiens) (UniProt P11388+Q02880)
# assayText: The compound was tested for inhibitory activity against human DNA topoisomerase II
# Format: protein assay
This listing pairs molecules with measured IC100.
Answer in µM, number only, no unit symbol.

[[record]]
chemicalstring = "COc1cc([C@@H]2c3cc4c(cc3[C@@H](Nc3ccc(-c5nc6ccccc6[nH]5)cc3)[C@H]3COC(=O)[C@H]23)OCO4)cc(OC)c1O"
recordedmeasurement = 10


Now, please, on to the next molecule.
Reported IC100 ( COc1cc([C@@H]2c3cc4c(cc3[C@@H](Nc3nc5ccccc5[nH]3)[C@H]3COC(=O)[C@H]23)OCO4)cc(OC)c1O ) = 100
